Test system: HeLa cells
Assay: Cellular nucleic acid staining of live and fixed cells
Assay type: cell-based
Conditions: dye 1 μg/ml in PBS, live or fixed HeLa cells, 30 min, fluorescence microscope (FIG. 6)
endpoint-label: live cell permeability

[
  {
    "compound": "OCCCCN1C(c2ccccc2)=C/C(=C\\c2sc3ccccc3[n+]2CCCCO)c2ccccc21 [Compound 4]",
    "result": "cell impermeability"
  },
  {
    "compound": "CC(=O)NCCCCN1C(c2ccccc2)=C/C(=C\\c2sc3ccccc3[n+]2CCCCNC(C)=O)c2ccccc21 [Compound 6]",
    "result": "cell impermeability"
  }
]
